# Test system: erythrocyte
# runDescription: Erythrocyte hemolysis assay
# Format: cell-based
# measurementSetup: at 4x MIC
Please respond with reported Haemolysis 4x MIC for every item in the list.
Numbers only, in %.

CC(NC(=S)Nc1cc(C(F)(F)F)cc(C(F)(F)F)c1)c1ccc(Br)cc1 (stereo not shown) [Compound C]	15

# input for lookup
Record summary for FC(F)(F)c1cc(NC(=S)NCCc2cccc(Cl)c2)cc(C(F)(F)F)c1 [Compound G] : reported Haemolysis 4x MIC = 0
